Cited source: PubChem BioAssay (NCI)

# Test system: XF 498 CNS
# test_summary: NCI tumour cell line growth inhibition, 48 h
Recorded TGI, one value per entry.
Please state the figure in µM; there is no need to write the unit.

1. Cn1c(=O)nc2n(-c3cc(Cl)ccc3Cl)c3ccccc3nc-2c1=O ... 18.9

Now examine the next entry.
Q: # value lookup — system XF 498 CNS, readout TGI, item Cn1c(=O)nc2n(-c3cccc(Cl)c3)c3ccccc3nc-2c1=O
A: 35.3

----------
# System: DLD-1 colon
# test_summary: NCI tumour cell line growth inhibition, 48 h
value_type: TGI

Consider the following illustrative entries.
1) CC1CCC2(OC1)OC1CC3C4CCC5CC(O)CCC5(C)C4CC(=O)OC3(C)C1C2C (stereo unspecified) ... > 100 µM
2) Nc1ccc(C(=O)N/C(=C\C=C\c2ccco2)c2nc3c4c(ccc3[nH]2)C(=O)c2ccccc2C4=O)cc1 ... 58.3 µM
3) CCc1cccc(C)c1NC(=O)CCc1n[nH]c(=S)o1 ... > 100 µM
4) C[C@@H](CC(O)C1OC1(C)C)[C@@H]1CC[C@]2(C)C3=CCC4C(C)(C)C(O)CC[C@]4(C)C3CCC12C (stereo partly specified) ... > 100 µM

Q: Recorded TGI of O=C(OCCO)C1CC2CC1C1(C2)OCCO1 (stereo unspecified) , please.
A: > 100 µM

Q: Please report the recorded TGI for O=c1[nH]ccc2c1ccn2C1CC(O)C(CO)O1 (stereo unspecified) .
A: > 100 µM
